- test name: yeast display, Sf9 membrane polyspecificity reagent, FACS + sequencing; frameworks hold sequencing errors
test readout: polyreactivity (PSR sort gate)

- sequence data: "QVQLVESGGGLVQAGGSLRLSCAASGRIFGVNAMGWYRQAPGKERELVAVISSGGSTYYADSVKGRFTISRDNAKKTVYLQMNSLKPEDTEVYYCDRKSYNFIPGNREYDYWGQGTQVTVSS"
  result: "low polyreactivity"
- sequence data: "QVQLVESGGGLVQAGGSLRLSCAASGRTFVGYAMGWYRQAPGKERELVAAITYSGVSTYYADSVKGRFTISRDNAKNTVYLQMNSLKPEDTAVYYCAADYISVYGYEYYYWGQGTQVTVSS"
  result: "high polyreactivity"
- sequence data: "QVQLVESGGGIVQAGRSLRLSCAASGRTFHGYAMGWYRQAPGKERELVAAITGTGGRTYYAESVKGRFTISRDKAKNTVYLQMNSLKPEDTAVYYCAARPWIKSGYWGQGTQVTVSS"
  result: "high polyreactivity"
- sequence data: "QVQLVESGGGLVPAGGSLRLSCAASGRIFYYYAMGWYRQAPGKERELVAAISSSGGSTYYADSVKGRFTISRDNAKKTVYLQMNSLKPEDTAVYYCAKRYALSGYYRLYDYWGQGTQVTVSS"
  result: "high polyreactivity"
- sequence data: "QVQLVESGGGLVQAGGSLRLSCAASGIIFSFYAMGWYRQAPGKERELVADITLSGGRTYYADSVKGRFTISRDNAKNTVYLQMNSLKPEDTAVYYCNDETYERGDYWGQGTKVTVSS"
  result: "high polyreactivity"
- sequence data: "QVQLEDSGGGLVQAGGSLRLSCAASGSTISYYTMGWYRQAPGKERELVAAISSGGSTYADSVKGRFTISRDNAKNTVYLQMNSLKPDDTAVYYCAVDGFDYGPSQALDYWGPGTQVTVSS"
  result: "low polyreactivity"
- sequence data: "QVQLVESGGGLVQAGGRLRLSCVASGSIFSGNAMGWYRQARGKERELVAAITRSGTSTYYADSVKGRFTISRDNAKNTVYLQMNSVKPEDTAVYYCATQYGRQRRAMYYWGQGTQVTVTS"
  result: "high polyreactivity"
- sequence data: "KVQLVESGGGLVQAGGSLRLSCAASGSTFYYYAMGWYSQAPGKERELVAAITSSTGSTYYADSVKGRFTISRDNAKNTVYLQMNSLKPVDTAVYYCAATDPYAYYWGQGTKVTVSS"
  result: "high polyreactivity"
- sequence data: "QGQLVESGGGLVQAGGRLRLSCAATGLTFAKNAMGWYRQAPGKEREMFAAIRSGDDTTYADSVKGRFTISRDNAKNTVYLQMNSLKPEDSAEYYCAARYYRTWDGRFGYWGQGTQVTVSS"
  result: "high polyreactivity"
- sequence data: "QVQLVESGGGLVQAGGSLRLSCAASGYTIYYYAMGWYRQAPGKERELVAVITSRGPRTYYADSVKGRFTISRDNAKNTVYLQMNSLKPEDTAVYYCNKARGVAYDWGQGTQVTVSS"
  result: "high polyreactivity"
- sequence data: "QVQLVESGGGLVQAGGSLRLSCAASGIILTQNAMGWYRQEPGKVRELVAAITESGARTYYADSVMGRFTISRDTAQNTVYLQMNSLKPEATAVYYCATEGPWGYDYWGIGTQVTVSS"
  result: "low polyreactivity"

###

- test name: yeast display, Sf9 membrane polyspecificity reagent, FACS + sequencing; frameworks hold sequencing errors

- sequence data: "QVQLVESGGGLVQAGGSLRLSCAASGRIFHYNAMGWYRQAPGKERELVAAITRRGTSTYYADSVKGRFTISRDNAKNTVYLQMNSLKPEDTAVYYCATDYGFKDSVVDFDYWGQGTQVTVSS"
  polyreactivity (PSR sort gate): "low polyreactivity"
- sequence data: "QVQLVESGGGLVQAGGSLRLICAASGRTFYPSVMGWYRQAPGKERELVARIRWSGSSTYYADSVKGRFTISRDNAKNTVYLQMNSLKPEDTAVYYCNARPSWYVLGSSVHSGMGYWGQGTQVTVSS"
  polyreactivity (PSR sort gate): "high polyreactivity"
- sequence data: "QVHLVQSGGGLVQAGGSLRLSCAASGRIFKFYAMGWYRQAPGKEMELVATISRGGSTYYADSVKGRFTISRDNAKNTVYLQMNSLKPEDTAVYYCAKQRERYYWFGAWSYDYWGQGTQVTVSS"
  polyreactivity (PSR sort gate): "low polyreactivity"
- sequence data: "QVQLVESGGGLVQAGGSLRLSGAASGFNLEPNAMGWYRQAPGKERELVATISFSGGGTYYADSVKGRFTISRDNAKNTVYLQMNSLKPEDTAVYYCAADWYYYVWWYDYWGQGTQVTVSS"
  polyreactivity (PSR sort gate): "high polyreactivity"
- sequence data: "QVQLVESGGGLVQAGGRLRLSCAASGFPFAVYAMGWYRQAPGKERELVATITSAGSTYYADSVKGRFTISRDTAKNTVYLQRNSLKPEDNEVYYCAAAGTYYRGDYGYWGQGTQVTVSS"
  polyreactivity (PSR sort gate): "low polyreactivity"

###

- test name: yeast display, Sf9 membrane polyspecificity reagent, FACS + sequencing; frameworks hold sequencing errors
test readout: polyreactivity (PSR sort gate)

- sequence data: "QVQLVESGGGLVQAGGSLRLSCAASGYTFNFNAMGWYRQAPGKERELVAAITWNGGRTYYADSVKGRFTISRDNAKNTVYLQMNSLKPEDTAVYYCAARSYQRPSDTRYDYWGQGTQVTVSS"
  test readout: "polyreactivity (PSR sort gate)"
  result: "high polyreactivity"
- sequence data: "QVQLVESGGGLVQAGGSLRLSCAASGSTFNLYAMGWYRQAHGKERELVADITWSGGSTYYADSVKWRFTISRDNAKKTFYLQMNSLKPEDTAVYYCAAYGLSWGGYDYWGQATQVTVSS"
  test readout: "polyreactivity (PSR sort gate)"
  result: "low polyreactivity"
- sequence data: "QVQLVESGGGLVQAGGSLRLSCAASGNTFVSNAMGWYRQAPGKERELVAAIDSGGSTNYADSVKGRFTISRDNEKNTVYLQMKSLKPEDTAVYYCNRTSVYYYYWGQGTQVTVSS"
  test readout: "polyreactivity (PSR sort gate)"
  result: "low polyreactivity"
- sequence data: "QVPLVESGGGLLQAGGSLRLSCSASGYTFSKYAMGWYRQAPGKERELVAAISFSGGSTYYADSVKGRFTISRDNAKNTVYLLMNSLKPEDTAVYYCDKYTITNYDYWGQGTLVTVSS"
  test readout: "polyreactivity (PSR sort gate)"
  result: "low polyreactivity"
- sequence data: "QVQLVESGGGLVQAGGSLRLSCAASGGIFSPNAMGWYRQAPGKERELVAAISSNGGSTNYADSVKGRFTISRDNAKNTVYLQMNSLKPEDTAVFYCAGLQLRRSYRRPFYWGQGTQVTVSS"
  test readout: "polyreactivity (PSR sort gate)"
  result: "low polyreactivity"
- sequence data: "QVQLVESGGGLVQAGGSLRLSCAASGSISWHYAMGWYRQAPGKERELVASISTDGGTTYYADSVKGRFTISRDNAKNTVYLQMNSLKPEDTAVYYCAAEWYWVYYVPYEYWGQGTQVTVSS"
  test readout: "polyreactivity (PSR sort gate)"
  result: "low polyreactivity"
- sequence data: "QVQLVESGAGLVQAGGSLRLSCADSGIIFSSNAMGWYRQAPGKERELVASITSAGNTYYADSVKGRFTISRDNAKNTVYLQMNSLKPEDTAVYYCYARYYYQYFHFSWSYPYGSWGQGTQVTVSS"
  test readout: "polyreactivity (PSR sort gate)"
  result: "high polyreactivity"
- sequence data: "QVQLVESGGGLVQAGGSLRISCAASGITLNVYAMGWYRQAPGKERELVAAISYNGGRTYYADSVKGRFTISRDNAKNTVYLQMNSLKPEDTAVYYCAAQWPWGPYDYWGQGTQVTVSS"
  test readout: "polyreactivity (PSR sort gate)"
  result: "high polyreactivity"
- sequence data: "QVQLVESGGGLVQAGGSLRLSCAASGFIFFKYAMRWYRQAPGKEREFVAAISKSGTSTYYADSVKGRFTISRDNAKNTVYLQMNSLKPEDTAVYYCAARKDSYYYRSYDSWGQGTQVTVSS"
  test readout: "polyreactivity (PSR sort gate)"
  result: "high polyreactivity"
- sequence data: "QVQLVESGGGLVQAGGSLRLSCAASGFIFFYNAMGWYRQAPGKERELVADISSGGRTYYADSVKGRFTISRDNAKNTVYLQMNSLKPEDTAVYYCAAQSRYWVVRMDYWGQGTQVTVSS"
  test readout: "polyreactivity (PSR sort gate)"
  result: "high polyreactivity"
- sequence data: "QVQLVESGGGLVQAGGSLRLSCAASGFIFDRYAMGWYRQAPGKERELVAAIDTASSTNYADSVKGRFTISRDNAKNTVYLQMNSLKPEDTGVYYCNASGYYYVIYWKVSNYNYWGQGTQVTVSS"
  test readout: "polyreactivity (PSR sort gate)"
  result: "low polyreactivity"
- sequence data: "QVQLVESGGGLVQAGGSLRLSCAASGFTFLVYVMGWYRQAPGKVRELVAAISSCGSSTYYADSVKGRFTISRDNAKNTVYLQMNSLKPEDTAVYYCAAAPYYSHEYDYWGQGTQVTVSS"
  test readout: "polyreactivity (PSR sort gate)"
  result: "low polyreactivity"
- sequence data: "QVQLVESGGGLVQAGGSLRLSCAASGYIFYPYTMGWYRPAPGKERELVAAITRSGSSTYYADSVKGRFTISRDNAKNTVYLQMNSLKPEDTAVYYCAAQRVNWYLSPSLYYYWGQGTQVTVSS"
  test readout: "polyreactivity (PSR sort gate)"
  result: "high polyreactivity"
- sequence data: "QVQLVESGGGLVQAGGSLRLSCAASGSTFTWNDMGRYRQAPGKERELVAGISLSAGSTYYADSVKGRFTISRDNAKNTDYLQMNSLKPEDTAVYYCNADPGGPDTYEEHDYWGQGTQVTVSS"
  test readout: "polyreactivity (PSR sort gate)"
  result: "low polyreactivity"
- sequence data: "QVQLVETGGGLVQAGGSLRLSCAASGFIFGYNARGWYRKAPGQVRELVAAISSGGRTYYADSVKGRFTISRDNAKHTVYLQMNSLKPQDTAVYYCSVDPHLYALRGAVYYWGQGTQVTVSS"
  test readout: "polyreactivity (PSR sort gate)"
  result: "low polyreactivity"
- sequence data: "QVQLVESGGGLVQAGGSLRLSCAASGRTFTHNVMGRYRQAPGKERELVAGISSTGGSTYYADSVKGRFTISRDNAKNTVYLQMNSLKPEDTAVYYCAVIGYHYSAISPPSQTRQGYDYWGQGTQVTVSS"
  test readout: "polyreactivity (PSR sort gate)"
  result: "low polyreactivity"
- sequence data: "QVQLVESGGGLVQAGGSLRVSCAASGFIFSYSAMGWYRQAPGKERELVAAISRSGGRTYYADSVKGRFTISRDNAKNTVYLQMNSLKPEDTAVYYCAAPVSLRPIYDYWGHGTQVTVSS"
  test readout: "polyreactivity (PSR sort gate)"
  result: "high polyreactivity"
- sequence data: "QVQLVESGGGLVQAGGSLRLSCAASGSTFQWYAMGWNIQAPGKERELVAGITRTGSTYYADSVKGRFTISRDNAKNTVYLQMNSLKPEDTAVYYCAAKWHTASGKYYYWGQVTQVTVSS"
  test readout: "polyreactivity (PSR sort gate)"
  result: "high polyreactivity"
- sequence data: "QVQLVESRGGLVQAGGSLRLSCAASGLIFRHYAMGWYRQAPGKERELVAAITGSGSTYYADSVKGRFTISRDNAKNTVYFQMNSLKPEDTAVDYCAATVYSSGAMDYWGQGTQVTVSS"
  test readout: "polyreactivity (PSR sort gate)"
  result: "low polyreactivity"
- sequence data: "QVQLVESGGGLVQAGGSLRLSCAASGNIIWGNAIGWYRQAPGKERELVAAISRRSGSTYYADSVKGRFTISRDIAKNTVYLQMNSLKPEDTAVYYCNTAGRVGTYDYWGQGTQVTVSS"
  test readout: "polyreactivity (PSR sort gate)"
  result: "high polyreactivity"
- sequence data: "QVHLVESGGGLVQAGGSLRLSCAASGSIFKPYAMGWYRKAPGKERELVAAISGIGGSTYYADSVKGRFTISRDNAKNTVYLQMNSLKPEDTAVYYCAADTFFKIFSEYNYCGQGTQVTVSS"
  test readout: "polyreactivity (PSR sort gate)"
  result: "high polyreactivity"
